Where do these numbers come from? They come from patent US9938322B2.

Test system: human red blood cells (hRBC)
Protocol Description: Hemolysis of human red blood cells
Assay type: cell-based
Test Conditions: red cells of human, 1 h, 100
Where a SMILES comes first, the peptide text is derived from it. [ ]: non-standard residue; d: D form. Pro(3S-OH) = O=C(O)[C@H]1NCC[C@@H]1O; Dap(CONH2) = NC(=O)NC[C@H](N)C(=O)O; Cha = N[C@@H](CC1CCCCC1)C(=O)O; Tle = CC(C)(C)[C@H](N)C(=O)O; dDab = NCC[C@@H](N)C(=O)O; Orn = NCCC[C@H](N)C(=O)O; Dab = NCC[C@H](N)C(=O)O; Abu = CC[C@H](N)C(=O)O
Measured Hemolysis at 100 μg/ml, listed per entry for reference.

| Molecule | Target Under Test | Hemolysis at 100 μg/ml |
| --- | --- | --- |
| CC(C)C[C@@H]1NC(=O)[C@@H]2[C@@H](O)CCN2C(=O)[C@H]2CCCN2C(=O)[C@H](CO)NC(=O)[C@H](C)NC(=O)[C@H](C(C)(C)C)NC(=O)[C@H](CCN)NC(=O)[C@H](Cc2c[nH]c3ccccc23)NC(=O)[C@H](CCN)NC(=O)[C@@H](CCN)NC(=O)[C@H](CCCN)NC(=O)[C@H](CCN)NC(=O)[C@H](CC2CCCCC2)NC(=O)[C@H](CO)NC1=O [compound 58] (cyclo(AS[dP][Pro(3S-OH)]LS[Cha][Dab][Orn][dDab][Dab]W[Dab][Tle])) | human red blood cells (hRBC) | 1% |
| CC(C)C[C@@H]1NC(=O)[C@@H]2[C@@H](O)CCN2C(=O)[C@H]2CCCN2C(=O)[C@H](CO)NC(=O)[C@H](CNC(N)=O)NC(=O)[C@H](C(C)(C)C)NC(=O)[C@H](CCN)NC(=O)[C@H](Cc2c[nH]c3ccccc23)NC(=O)[C@H](CCN)NC(=O)[C@@H](CCN)NC(=O)[C@H](CCCN)NC(=O)[C@H](CCN)NC(=O)[C@H](CC2CCCCC2)NC(=O)[C@H](CO)NC1=O [compound 59] (cyclo([Cha][Dab][Orn][dDab][Dab]W[Dab][Tle][Dap(CONH2)]S[dP][Pro(3S-OH)]LS)) | human red blood cells (hRBC) | 1% |
| CC[C@@H]1NC(=O)[C@H]([C@@H](C)CC)NC(=O)[C@@H]2CCCN2C(=O)[C@H]2CCCN2C(=O)[C@H](CO)NC(=O)[C@H](C)NC(=O)[C@H](C(C)(C)C)NC(=O)[C@H](CCN)NC(=O)[C@H](Cc2c[nH]c3ccccc23)NC(=O)[C@H](CCN)NC(=O)[C@@H](CCN)NC(=O)[C@H](CCCN)NC(=O)[C@H](CCN)NC(=O)[C@H](Cc2ccc(O)cc2)NC1=O [compound 126] (cyclo(I[Abu]Y[Dab][Orn][dDab][Dab]W[Dab][Tle]AS[dP]P)) | human red blood cells (hRBC) | 0.5% |
